pIC50: −log10 of the molar value.
Compiled record: pIC50 values for ALK tyrosine kinase receptor (Homo sapiens) across several sources.

compound=NC(=O)c1ccc(-c2cnc3c(c2)N(Cc2ccccc2)C(=O)CN3)cc1 test_target="ALK tyrosine kinase receptor (Homo sapiens)" measurement="5.00 to 6.00"
compound=Cc1ccc(NC(=O)CN(C)C)cc1Nc1nc(Nc2cc(F)c(F)cc2C(N)=O)c2cc[nH]c2n1 test_target="ALK tyrosine kinase receptor (Homo sapiens)" measurement="6.70 to 8.30"
compound="O=C1c2cc3nc(-c4c(NC[C@@H](O)c5cccc(Cl)c5)cc[nH]c4=O)[nH]c3cc2C(=O)N1CC(O)CO (stereo partly shown)" test_target="ALK tyrosine kinase receptor (Homo sapiens)" measurement="< 4.82"

Now, please, on to the next compound.
What the record says about Cc1cc(O)ccc1-c1nc2[nH]nc(C)c2c(-c2ccc(N3CCNCC3)cc2)c1C#N : pIC50 is 6.00 to 7.00

====

pIC50: −log10 of the molar value.
Please find below pIC50 data on ALK tyrosine kinase receptor (Homo sapiens) compiled from the literature.

In the examples that follow, each entry is paired with its recorded pIC50.
molecule=O=C(O)c1cnc2c(c1)N(Cc1cc(Cl)ccc1Cl)CCN2 outcome_measure=pIC50 measurement="< 4.00"
molecule=CNC(=O)c1ccccc1Nc1nc(Nc2cc3c(cc2OC)CCN3C(=O)CN(C)C)nc2[nH]ccc12 outcome_measure=pIC50 measurement="6.70 to 8.30"
molecule="CN1CCN(C(=O)c2ccc(-c3cnc4c(c3)C(Oc3cc(Cl)ccc3Cl)CCN4)cc2)CC1 (centres unmarked)" outcome_measure=pIC50 measurement="6.00 to 7.00"
molecule=CNC(=O)c1c(F)cccc1Nc1nc(Nc2cc3c(cc2OC)CCN3C(=O)[C@@H](C)N(C)C)nc2[nH]ccc12 outcome_measure=pIC50 measurement="8.40 to 8.90"
molecule=O=C(c1cnc2c(c1)N(Cc1cc(Cl)ccc1Cl)CCN2)N1CCN(c2cccc(C(F)(F)F)c2)CC1 outcome_measure=pIC50 measurement="4.00 to 5.00"

Please state, for each entry, its recorded pIC50.
1. COc1cc(-c2c(C#N)c(-c3ccc(O)cc3F)nc3[nH]nc(C)c23)ccc1OCCCN(C)C
2. O=C(NCc1cccc(Cl)c1)c1cnc2c(c1)N(Cc1cc(Cl)ccc1Cl)CCN2
3. CNC(=O)c1c(F)cccc1Nc1nc(Nc2cc3c(cc2OC)C[C@H](C)N3C(=O)CN(C)C)nc2[nH]ccc12
4. COc1cc2ccn(CC(=O)N(C)C)c2cc1Nc1nc(Nc2cccc(F)c2C(N)=O)c2cc[nH]c2n1
5. CNC(=O)c1c(F)cccc1Nc1nc(Nc2cc3c(cc2OC)CCN3C(=O)C(C)(C)O)nc2[nH]ccc12
6. O=C(c1ccc(-c2cnc3c(c2)N(Cc2cc(F)ccc2F)CCN3)cc1)N1CCC(N2CCCC2)CC1
7. Cc1n[nH]c2nc(-c3ccc(O)cc3F)c(C#N)c(C(=O)NC3CCNCC3)c12

Outgoing:
1: 6.00 to 7.00; 2: 5.00 to 6.00; 3: 9.00 to 9.60; 4: 6.70 to 8.30; 5: 6.70 to 8.30; 6: > 7.00; 7: 5.00 to 6.00

For the 2 molecules below, give their pIC50 values.
1. Cc1ccc2c(ccn2C[C@H](O)CNc2cc[nH]c(=O)c2-c2nc3cc4c(cc3[nH]2)C(=O)N(C2CCN(C)CC2)C4=O)c1
2. NS(=O)(=O)c1ccc(CCNC(=O)c2cccc(-c3cnc4c(c3)N(Cc3cc(Cl)ccc3C(F)(F)F)CCN4)c2)cc1

Outgoing:
4.82 to 5.30
6.00 to 7.00
